- System Tested: UniProtKB Q63634
- Sequence (Q63634 1-445): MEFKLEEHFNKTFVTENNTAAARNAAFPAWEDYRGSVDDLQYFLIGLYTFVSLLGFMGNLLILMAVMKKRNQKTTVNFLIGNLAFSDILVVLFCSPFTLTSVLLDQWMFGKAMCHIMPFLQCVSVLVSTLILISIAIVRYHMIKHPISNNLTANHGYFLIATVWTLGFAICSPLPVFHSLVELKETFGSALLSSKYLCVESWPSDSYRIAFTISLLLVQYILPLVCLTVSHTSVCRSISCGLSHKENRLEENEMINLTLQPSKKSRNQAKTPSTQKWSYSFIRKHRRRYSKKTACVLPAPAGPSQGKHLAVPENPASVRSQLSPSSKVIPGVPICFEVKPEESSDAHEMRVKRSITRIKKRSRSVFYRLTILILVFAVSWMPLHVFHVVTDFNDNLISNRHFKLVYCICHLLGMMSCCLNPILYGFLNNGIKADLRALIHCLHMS
pIC50: −log10 of the molar value.
Item-by-item account of pIC50
Property: pIC50

{"Molecule": "COC(Cn1c(SCC(=O)Nc2ccc(Cl)cc2)nnc1-c1ccc(Cl)cc1)OC [Compound 161, reference compound]", "System Tested": "UniProtKB Q63634", "Property": "pIC50", "Result": "< 5.00"}
{"Molecule": "COC(Cn1c(SCC(=O)Nc2ccc(C(C)C)cc2)nnc1-c1ccccc1)OC [Compound 163, reference compound]", "System Tested": "UniProtKB Q63634", "Property": "pIC50", "Result": "< 5.00"}
{"Molecule": "O=C(CSc1ccc2ccccc2n1)Nc1ccc(C2CCCCC2)cc1", "System Tested": "UniProtKB Q63634", "Property": "pIC50", "Result": "< 6.00"}
{"Molecule": "CC(C)c1ccc(NC(=O)CSc2nnc(CSc3cccs3)n2C)cc1 [Compound 153, reference compound]", "System Tested": "UniProtKB Q63634", "Property": "pIC50", "Result": "< 5.00"}
{"Molecule": "O=C(CSc1ccccn1)Nc1ccc(C2CCCCC2)cc1 [Compound 182, reference compound]", "System Tested": "UniProtKB Q63634", "Property": "pIC50", "Result": 6.12}
{"Molecule": "O=C(CSc1nnc(NC2CCCCC2)s1)Nc1ccc(C(=O)c2ccccc2)cc1", "System Tested": "UniProtKB Q63634", "Property": "pIC50", "Result": 6.28}
{"Molecule": "CC(C)c1ccc(NC(=O)CSc2nc3cc(C(F)(F)F)ccc3n2C(C)C)cc1 [Compound 165, reference compound]", "System Tested": "UniProtKB Q63634", "Property": "pIC50", "Result": "< 5.00"}
{"Molecule": "Cc1cc(C)c(CSCC(=O)Nc2ccc(C(=O)c3ccccc3)cc2)c(C)c1", "System Tested": "UniProtKB Q63634", "Property": "pIC50", "Result": "< 6.00"}
{"Molecule": "Cn1c(SCC(=O)Nc2ccc(Cl)cc2)nnc1-c1ncc(C(F)(F)F)cc1Cl [Compound 160, reference compound]", "System Tested": "UniProtKB Q63634", "Property": "pIC50", "Result": "< 5.00"}
{"Molecule": "Cn1ccnc1SCC(=O)Nc1ccc(I)cc1 [Compound 145, reference compound]", "System Tested": "UniProtKB Q63634", "Property": "pIC50", "Result": "< 5.00"}
{"Molecule": "Cc1cc(-c2nc(C)c(-c3nnc(SCC(=O)Nc4ccc(Cl)cc4)n3C)s2)no1 [Compound 169, reference compound]", "System Tested": "UniProtKB Q63634", "Property": "pIC50", "Result": "< 5.00"}
{"Molecule": "CC(C)c1ccc(NC(=O)CSc2nccn2C)cc1 [Compound 155, reference compound]", "System Tested": "UniProtKB Q63634", "Property": "pIC50", "Result": "< 5.00"}
{"Molecule": "Cc1cc(-c2nnc(SCC(=O)Nc3ccccc3)n2C)no1 [Compound 150, reference compound]", "System Tested": "UniProtKB Q63634", "Property": "pIC50", "Result": "< 5.00"}
{"Molecule": "Cn1c(CC2Sc3ccccc3NC2=O)nnc1SCC(=O)Nc1ccc(Cl)cc1 (stereo not shown) [Compound 167, reference compound]", "System Tested": "UniProtKB Q63634", "Property": "pIC50", "Result": "< 5.00"}
{"Molecule": "CC(Sc1nnnn1C)C(=O)Nc1ccc(C(C)(C)C)cc1 (stereo not shown)", "System Tested": "UniProtKB Q63634", "Property": "pIC50", "Result": 6.44}
{"Molecule": "Cn1cnnc1SCC(=O)Nc1ccc(C(C)(C)C)cc1 [Compound 164, reference compound]", "System Tested": "UniProtKB Q63634", "Property": "pIC50", "Result": 5.77}

###

- System Tested: Human NPY5 Receptor (Homo sapiens, UniProt Q15761)
- Sequence (Q15761 whole entry): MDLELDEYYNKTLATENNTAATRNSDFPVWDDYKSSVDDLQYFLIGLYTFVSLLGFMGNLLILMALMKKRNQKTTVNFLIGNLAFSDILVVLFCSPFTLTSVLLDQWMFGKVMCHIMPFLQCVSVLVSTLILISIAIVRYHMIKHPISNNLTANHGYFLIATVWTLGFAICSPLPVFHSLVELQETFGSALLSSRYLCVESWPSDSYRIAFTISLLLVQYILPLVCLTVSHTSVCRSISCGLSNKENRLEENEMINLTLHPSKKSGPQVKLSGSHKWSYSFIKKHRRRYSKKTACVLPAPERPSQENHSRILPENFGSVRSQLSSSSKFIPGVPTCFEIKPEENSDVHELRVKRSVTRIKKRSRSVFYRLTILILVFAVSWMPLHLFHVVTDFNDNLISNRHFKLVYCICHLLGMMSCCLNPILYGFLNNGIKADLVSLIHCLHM
- Assay Text: Human NPY5 Receptor Binding Assay
- Setup Conditions: [125I]PYY; read-out: hNPY5 IC50
pIC50: −log10 of the molar value.

{"Compound": "O=C(CSc1ncccn1)Nc1ccc(C(=O)c2ccccc2)cc1", "Qualifier Sign": "=", "pIC50": 5.80}
{"Compound": "Cc1ccc(SCC(=O)Nc2cccc(C#N)c2)cc1 [Compound 151, reference compound]", "Qualifier Sign": "=", "pIC50": 6.62}
{"Compound": "Cn1c(CO)cnc1SCC(=O)Nc1ccc(C2CCCCC2)cc1", "Qualifier Sign": "=", "pIC50": 6.05}
{"Compound": "Nc1nnc(SCC(=O)Nc2ccc(C3CCCCC3)cc2)s1", "Qualifier Sign": "=", "pIC50": 6.66}
{"Compound": "O=C(CSc1ncnc2c1ncn2[C@@H]1O[C@H](CO)[C@H](O)[C@H]1O)Nc1ccc(C(=O)c2ccccc2)cc1", "Qualifier Sign": "<", "pIC50": 5.00}
{"Compound": "O=C(CSCc1cccc(CS)c1)Nc1ccc(C2CCCCC2)cc1", "Qualifier Sign": "=", "pIC50": 6.07}
{"Compound": "Nc1cccc(SCC(=O)Nc2ccc(C(=O)c3ccccc3)cc2)c1", "Qualifier Sign": "=", "pIC50": 6.47}
{"Compound": "O=C(CSc1nnc(CSCCOc2ccc(Cl)cc2Cl)o1)Nc1ccc(C(=O)c2ccccc2)cc1", "Qualifier Sign": "<", "pIC50": 6.00}
{"Compound": "O=C(CSc1nnc(NC2CCCCC2)s1)Nc1ccc(C2CCCCC2)cc1", "Qualifier Sign": "=", "pIC50": 5.89}
{"Compound": "Cc1cc(-c2nc(C)c(-c3nnc(SCC(=O)Nc4ccc(C(C)C)cc4)n3C)s2)no1 [Compound 177, reference compound]", "Qualifier Sign": "<", "pIC50": 5.00}
{"Compound": "Cc1ccnc(SCC(=O)Nc2ccc(C(=O)c3ccccc3)cc2)n1", "Qualifier Sign": "=", "pIC50": 6.32}
{"Compound": "O=C(CSCc1ccco1)Nc1ccc(C(=O)c2ccccc2)cc1", "Qualifier Sign": "=", "pIC50": 6.54}
{"Compound": "Cc1cc(-c2nc(C)c(-c3nnc(SCC(=O)Nc4ccc(Cl)cc4)n3C)s2)no1 [Compound 169, reference compound]", "Qualifier Sign": "<", "pIC50": 5.00}
{"Compound": "Nc1nc(SCC(=O)Nc2ccc(C3CCCCC3)cc2)c2[nH]cnc2n1", "Qualifier Sign": "<", "pIC50": 6.00}
{"Compound": "O=C(CSc1nc2ccccc2c(=O)[nH]1)Nc1ccc(C2CCCCC2)cc1", "Qualifier Sign": "<", "pIC50": 5.00}
{"Compound": "O=C(CSc1ncnc2[nH]ncc12)Nc1ccc(C(=O)c2ccccc2)cc1", "Qualifier Sign": "=", "pIC50": 5.89}
{"Compound": "Nc1nc(SCC(=O)Nc2ccc(C(=O)c3ccccc3)cc2)c2[nH]cnc2n1", "Qualifier Sign": "=", "pIC50": 5.30}
{"Compound": "Cc1ccc2[nH]c(SCC(=O)Nc3ccc(C4CCCCC4)cc3)nc2c1", "Qualifier Sign": "=", "pIC50": 6.37}
{"Compound": "O=C(CSCCO)Nc1ccc(C(=O)c2ccccc2)cc1", "Qualifier Sign": "=", "pIC50": 6.16}
{"Compound": "O=C(CSc1ccncc1)Nc1ccc(C2CCCCC2)cc1", "Qualifier Sign": "=", "pIC50": 7.28}
{"Compound": "O=C(CSc1ncnc2nc[nH]c12)Nc1ccc(C(=O)c2ccccc2)cc1", "Qualifier Sign": "<", "pIC50": 5.00}
{"Compound": "Cn1nnnc1SCC(=O)Nc1ccc(C2CCCCC2)cc1", "Qualifier Sign": "=", "pIC50": 6.80}
{"Compound": "COc1ccc(-c2nnc(SCC(=O)Nc3ccc(C(=O)c4ccccc4)cc3)n2-c2cccc(C(F)(F)F)c2)cc1", "Qualifier Sign": "=", "pIC50": 5.89}
{"Compound": "CSc1ncc(-c2nnc(SCC(=O)Nc3ccc(Cl)cc3)n2C)n1C [Compound 142, reference compound]", "Qualifier Sign": "<", "pIC50": 5.00}
